test system: mitochondria or chloroplast of Chlamydomonas reinhardtii; test: Subcellular localization of Venus reporter by epifluorescence microscopy (manual targeting assignment); assay type: cell-based; conditions: targeting of the Venus reporter fused to the peptide, expressed in Chlamydomonas reinhardtii; manual assignment from epifluorescence microscopy; full or partial
quantity: Localisation

seq_string="MQVTMKSSAVSGQRVFLPLLAGLAANFLPRIFCRITRRCSVRRAQLQVVASSRKQMGRWRSIDAGVDASDDQ [c.B1E.R.c]" tested_on="mitochondria or chloroplast of Chlamydomonas reinhardtii" quantity=Localisation result=Chloroplast
seq_string="MQVTMKSSAVSGQRVMKYYGNGVSCNKKGCSVDWGKAIGIIGNNAAANLTTGGKAGWKGLTQTAESFRGVSSQFFDAPNGPSVKQVLIEDEW [c.EHF.K.m]" tested_on="mitochondria or chloroplast of Chlamydomonas reinhardtii" quantity=Localisation result=Chloroplast
seq_string="MGWIRDFGKRIERVGQHTRDATIQTIAVAQQAANVAATLKG [S1D.K]" tested_on="mitochondria or chloroplast of Chlamydomonas reinhardtii" quantity=Localisation result=Neither
seq_string="MGKIPVKAIKKAGAAIGKGLRAINIASTAHDVYSFFKPKHKKK [SIM.K]" tested_on="mitochondria or chloroplast of Chlamydomonas reinhardtii" quantity=Localisation result=Neither
seq_string="MALWKTMLKKLGTMALHAGKAAFGAAADTISQSVRRAQLQVVASSRKQMGRWRSIDAGVDASDDQ [DDM.K.c]" tested_on="mitochondria or chloroplast of Chlamydomonas reinhardtii" quantity=Localisation result=Neither
seq_string="MQVTMKSSAVSGQRVMGLFSKFNKKKIKSGLIKIIKTAGKEAGLEALRTGIDVIGCKIKGEC [c.E1S.K]" tested_on="mitochondria or chloroplast of Chlamydomonas reinhardtii" quantity=Localisation result=Neither

query: Give recorded Localisation with mitochondria or chloroplast of Chlamydomonas reinhardtii for the following sequence: MALWMTLLRRVLRAAARAALNAVLVGANALTQTAESFRGVSSQFFDAPNGPSVKQVLIEDEW [DS4.R.m]
result: Neither

query: Can you look up Localisation on mitochondria or chloroplast of Chlamydomonas reinhardtii for MQVTMKSSAVSGQRVMGLFSRFNRRRIRSGLIRIIRTAGREAGLEALRTGIDVIGCRIRGEC [c.E1S.R] ?
result: Chloroplast

query: Which Localisation is reported with mitochondria or chloroplast of Chlamydomonas reinhardtii for this entry: MALWKTMLKKLGTMALHAGKAAFGAAADTISQ [DDM.K] ?
result: Neither
